test: Drug concentration in Sprague-Dawley rat at 80 umol/kg, iv measured after 1 min by LC-MS/MS analysis; type: ADME, organism-based; conditions: Sprague-Dawley, in vivo, 80 umol/kg, read-out: Drug uptake
OUTCOME_MEASURE: concentration at 1 min (ng/mL)
Numbers only, in ng/mL.

Give its concentration at 1 min value. Item: CCCCC1OC(=S)c2ccccc21 (stereo unspecified)
7500

###

Please provide measured concentration at 1 min for the entries that follow.
assay: Drug concentration in Sprague-Dawley rat plasma at 80 umol/kg, iv measured after 1 min by LC-MS/MS analysis; assay type: ADME, organism-based; conditions: dose 80 µmol/kg
Numbers only, in µg/mL.

>  <COMPOUND>
CCCCC(OC(C)=O)c1ccccc1C(=O)SSCC(NC(C)=O)C(=O)O (configuration not stated)

>  <ENDPOINT_UNIT>
µg/mL

>  <concentration at 1 min>
151

$$$$

Consider the record given below.
Give its concentration at 1 min value. Item: CCCCC(OC(C)=O)c1ccccc1C(=O)[S-].[Na+] (configuration not stated)
216

###

biological target: Liver carboxylesterase (Sus scrofa); test: Drug metabolism in PBS assessed as porcine liver esterase mediated compound hydrolysis by measuring half life at 500 uM by UPLC method; assay type: ADME; conditions: pig
Sequence (Q29550 whole entry): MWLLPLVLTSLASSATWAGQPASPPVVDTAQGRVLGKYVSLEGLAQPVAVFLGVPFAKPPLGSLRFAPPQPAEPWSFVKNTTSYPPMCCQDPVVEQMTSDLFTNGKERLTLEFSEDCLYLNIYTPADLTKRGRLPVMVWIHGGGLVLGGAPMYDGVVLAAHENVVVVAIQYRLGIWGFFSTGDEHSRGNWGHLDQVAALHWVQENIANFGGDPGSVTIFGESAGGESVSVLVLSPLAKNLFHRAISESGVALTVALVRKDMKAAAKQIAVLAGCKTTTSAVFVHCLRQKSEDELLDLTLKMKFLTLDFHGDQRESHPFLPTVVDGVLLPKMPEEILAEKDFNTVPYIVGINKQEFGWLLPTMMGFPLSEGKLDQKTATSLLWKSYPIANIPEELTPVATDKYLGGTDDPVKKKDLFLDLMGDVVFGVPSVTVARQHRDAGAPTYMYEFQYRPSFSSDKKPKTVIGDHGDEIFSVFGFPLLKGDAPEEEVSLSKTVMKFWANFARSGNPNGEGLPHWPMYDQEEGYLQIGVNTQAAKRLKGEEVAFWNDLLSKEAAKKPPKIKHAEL
Outcome label depends on half-life at 500 µM relative to 0.3 h: at/above gives YES, below gives NO.

Use the examples below as a reference point.
>  <COMPOUND>
CCCCC(OC(=O)C(C)C)c1ccccc1C(=O)[S-].[Na+] (configuration not stated)

>  <ASSAYED_TARGET>
Liver carboxylesterase (Sus scrofa)

>  <ASSIGNED_CATEGORY>
YES

$$$$
>  <COMPOUND>
CCCCC(OC(C)=O)c1ccccc1C(=O)SSCC(NC(C)=O)C(=O)O (configuration not stated)

>  <ASSAYED_TARGET>
Liver carboxylesterase (Sus scrofa)

>  <ASSIGNED_CATEGORY>
YES

$$$$
>  <COMPOUND>
CCCCC(OC(=O)CC(C)C)c1ccccc1C(=O)SSCC(NC(C)=O)C(=O)[O-].[Na+] (configuration not stated)

>  <ASSAYED_TARGET>
Liver carboxylesterase (Sus scrofa)

>  <ASSIGNED_CATEGORY>
NO

$$$$
>  <COMPOUND>
CCCCC(OC(=O)C(C)C)c1ccccc1C(=O)SSCC(NC(C)=O)C(=O)[O-].[Na+] (configuration not stated)

>  <ASSAYED_TARGET>
Liver carboxylesterase (Sus scrofa)

>  <ASSIGNED_CATEGORY>
NO

$$$$
>  <COMPOUND>
CCCCC(OC(=O)CC)c1ccccc1C(=O)SSCC(NC(C)=O)C(=O)[O-].[Na+] (configuration not stated)

>  <ASSAYED_TARGET>
Liver carboxylesterase (Sus scrofa)

>  <ASSIGNED_CATEGORY>
YES

$$$$
>  <COMPOUND>
CCCCC(OC(=O)CC(C)C)c1ccccc1C(=O)[S-].[Na+] (configuration not stated)

>  <ASSAYED_TARGET>
Liver carboxylesterase (Sus scrofa)

>  <ASSIGNED_CATEGORY>
YES

$$$$

// next entry
State whether the measured half-life at 500 µM reaches 0.3 h, counting equality as reaching it, for CCCCC(OC(C)=O)c1ccccc1C(=O)[S-].[Na+] (configuration not stated)
YES

Source of measurements: ChEMBL document CHEMBL6127159
